target: human KDR (VEGF-receptor-2) (Homo sapiens, UniProt P35968)
Construct: beginning at Met-806; (5′-ATG GAT CCA GAT GM CTC CCA TTG) and ending at Val-1356; made in house
Sequence (P35968 806-1356): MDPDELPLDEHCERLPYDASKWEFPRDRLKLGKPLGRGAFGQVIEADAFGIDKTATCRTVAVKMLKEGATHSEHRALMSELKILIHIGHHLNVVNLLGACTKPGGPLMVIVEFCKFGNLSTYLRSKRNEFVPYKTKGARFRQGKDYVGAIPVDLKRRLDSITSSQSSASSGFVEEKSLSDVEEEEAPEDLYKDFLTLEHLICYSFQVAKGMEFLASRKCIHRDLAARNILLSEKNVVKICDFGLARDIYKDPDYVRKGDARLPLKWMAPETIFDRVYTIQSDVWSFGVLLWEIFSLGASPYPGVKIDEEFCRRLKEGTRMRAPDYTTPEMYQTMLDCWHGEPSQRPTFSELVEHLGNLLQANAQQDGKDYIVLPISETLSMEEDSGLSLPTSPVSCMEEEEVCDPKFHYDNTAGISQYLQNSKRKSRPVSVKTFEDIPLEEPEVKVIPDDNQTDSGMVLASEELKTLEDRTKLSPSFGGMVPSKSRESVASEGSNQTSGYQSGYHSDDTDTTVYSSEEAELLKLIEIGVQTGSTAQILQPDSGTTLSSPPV
test details: KDR kinase enzyme assay (DELFIA, KDR-IC-Flag, poly(Glu4-Tyr) peptide)
Format: biochemical
experimental parameters: Concentration 1000 nM; ATP conc. 10 μM
endpoint label: inhibition at 1 µM (%)
# value in %; strip the unit string

*Q* Given the molecule COCCOc1cc2ncnc(NC3=CC(=O)C(Oc4ccc(Oc5ccccc5)cc4)=CC3=O)c2cc1OC [Example 29] , what is its reported inhibition at 1 µM?
*A* 92

*Q* What about COCCOc1cc2ncnc(NC3=CC(=O)C(Oc4cccc(Cl)c4)=CC3=O)c2cc1OC [Example 33] ?
*A* 96

*Q* What about COCCOc1cc2ncnc(NC3=CC(=O)C(Oc4ccc(SC)cc4)=CC3=O)c2cc1OC [Example 35] ?
*A* 96

* * *

target: human KDR (VEGF-receptor-2) (Homo sapiens)
Construct: beginning at Met-806; (5′-ATG GAT CCA GAT GM CTC CCA TTG) and ending at Val-1356; made in house
test details: KDR kinase enzyme assay (DELFIA, KDR-IC-Flag, poly(Glu4-Tyr) peptide)
Assay type: biochemical
experimental parameters: Concentration 100 nM; ATP conc. 10 μM; read-out: % Inhibition
For each record, write down the corresponding inhibition at 0.1 µM.
# value in %; strip the unit string

*Q* Given the compound COCCOc1cc2ncnc(NC3=CC(=O)C(Sc4ccccc4)=CC3=O)c2cc1OC , what is its reported inhibition at 0.1 µM?
*A* 96

*Q* What about COCCOc1cc2ncc(C#N)c(NC3=CC(=O)C(Oc4ccccc4)=CC3=O)c2cc1OC ?
*A* 41

*Q* What about CCC1=CC(=O)C(Nc2ncnc3cc(OC)c(OC)cc23)=CC1=O ?
*A* 51

*Q* What about COCCOc1cc2ncnc(NC3=CC(=O)C(N(C)Cc4ccccc4)=CC3=O)c2cc1OC ?
*A* 15

* * *

target: human KDR (VEGF-receptor-2) (Homo sapiens, UniProt P35968)
Construct: beginning at Met-806; (5′-ATG GAT CCA GAT GM CTC CCA TTG) and ending at Val-1356; made in house
test details: KDR kinase enzyme assay wash-out experiments (irreversible inhibition)
Type: biochemical
experimental parameters: wash out
Protocol: To determine if compounds bound irreversibly to enzyme, plates were washed after the enzyme plus compound pre-incubation step and prior to the addition of ATP. Parallel plates were tested wherein one plate was processed exactly as above while a second plate was washed three times in 100 μl of 4 mM HEPES, pH 7.4, to remove unbound compound. 1× Kinase buffer (30 μl of 1 mM MnCl2, 4 mM HEPES, pH 7.4, 20 μM Na3VO4) and 20 μl of ATP/MgCl2 were added to the wash-out plate. […]
endpoint label: pIC50
Schema: pIC50 number; meaning minus log10 of the concentration expressed in molar units.

*Q* Given the molecule COCCOc1cc2ncnc(NC3=CC(=O)C(OCC4CC4)=CC3=O)c2cc1OC , what is its reported pIC50?
*A* 7.77

*Q* What about COCCOc1cc2ncnc(NC3=CC(=O)C(Oc4cccnc4)=CC3=O)c2cc1OC ?
*A* 7.72

*Q* What about COc1cc2ncnc(NC3=CC(=O)C(Nc4ccccc4)=CC3=O)c2cc1OC ?
*A* 7.24

*Q* What about COCCOc1cc2ncnc(NC3=CC(=O)C(Oc4ccccc4C)=CC3=O)c2cc1OC ?
*A* 7.73

*Q* What about COCCOc1cc2ncnc(NC3=CC(=O)C4(Cc5ccccc5)OC4C3=O)c2cc1OC (centres unmarked) ?
*A* 7.08

*Q* What about COc1cc2ncnc(NC3=CC(=O)C(Oc4ccccc4)=CC3=O)c2cc1OC ?
*A* 8.19

*Q* What about COCCOc1cc2ncnc(NC3=CC(=O)C(Sc4nccs4)=C(OC)C3=O)c2cc1OC ?
*A* 7.48

* * *

target: KDR (Homo sapiens, UniProt P35968)
Sequence (P35968 20-1356): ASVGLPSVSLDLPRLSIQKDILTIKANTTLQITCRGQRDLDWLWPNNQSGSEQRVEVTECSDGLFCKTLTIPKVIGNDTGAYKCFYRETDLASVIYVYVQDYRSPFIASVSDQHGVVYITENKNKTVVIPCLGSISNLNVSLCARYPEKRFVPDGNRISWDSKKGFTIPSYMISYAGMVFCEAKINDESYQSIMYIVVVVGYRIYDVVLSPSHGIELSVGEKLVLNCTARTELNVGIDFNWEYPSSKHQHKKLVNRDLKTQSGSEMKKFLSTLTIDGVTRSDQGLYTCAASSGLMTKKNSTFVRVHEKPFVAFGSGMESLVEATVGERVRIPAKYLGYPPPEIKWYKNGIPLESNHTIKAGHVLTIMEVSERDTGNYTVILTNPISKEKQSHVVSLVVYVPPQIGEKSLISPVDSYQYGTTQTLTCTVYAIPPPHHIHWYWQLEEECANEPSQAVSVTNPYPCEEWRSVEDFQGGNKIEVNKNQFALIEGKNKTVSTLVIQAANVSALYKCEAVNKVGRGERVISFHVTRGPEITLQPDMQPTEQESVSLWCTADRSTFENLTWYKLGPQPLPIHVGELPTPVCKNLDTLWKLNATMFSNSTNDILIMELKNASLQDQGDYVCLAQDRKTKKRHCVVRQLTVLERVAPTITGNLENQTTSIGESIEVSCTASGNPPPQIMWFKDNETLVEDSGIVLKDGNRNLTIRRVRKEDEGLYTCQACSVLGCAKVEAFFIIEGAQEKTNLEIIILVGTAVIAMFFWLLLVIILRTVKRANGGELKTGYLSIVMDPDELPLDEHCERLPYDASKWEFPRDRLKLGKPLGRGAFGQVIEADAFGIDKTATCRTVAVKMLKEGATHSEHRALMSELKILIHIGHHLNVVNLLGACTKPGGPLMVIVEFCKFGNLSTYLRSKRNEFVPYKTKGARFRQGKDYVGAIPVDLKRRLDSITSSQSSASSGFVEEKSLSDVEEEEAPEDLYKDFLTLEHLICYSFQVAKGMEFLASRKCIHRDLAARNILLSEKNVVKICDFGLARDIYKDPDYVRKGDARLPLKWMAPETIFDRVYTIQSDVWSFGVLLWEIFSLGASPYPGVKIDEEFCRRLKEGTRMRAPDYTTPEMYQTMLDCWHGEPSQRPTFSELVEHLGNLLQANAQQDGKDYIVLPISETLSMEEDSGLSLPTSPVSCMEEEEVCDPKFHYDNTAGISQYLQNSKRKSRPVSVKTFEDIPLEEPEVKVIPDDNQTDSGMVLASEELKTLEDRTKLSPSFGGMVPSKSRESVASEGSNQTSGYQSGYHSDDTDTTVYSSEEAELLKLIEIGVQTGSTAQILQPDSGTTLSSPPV
test details: cell-based
experimental parameters: read-out: % Inhibition of KDR kinase autophosphorylation in KDR15 cells, compound conc. 1000 nM
endpoint label: inhibition at 1 µM
Remember to follow the number with its unit.

*Q* Given the molecule CCOC(=O)c1c(C)[nH]c2ccc(OC3=CC(=O)C(Nc4ncnc5cc(OCCOC)c(OC)cc45)=CC3=O)cc12 [Example 45] , what is its reported inhibition at 1 µM?
*A* 99%

*Q* What about COCCOc1cc2ncnc(NC3=CC(=O)C(Oc4ccc(C(=O)OC)cc4)=CC3=O)c2cc1OC [Example 42] ?
*A* 64%

*Q* What about COCCOc1cc2ncnc(NC3=CC(=O)C(Oc4ccc(C)cc4-c4ccno4)=CC3=O)c2cc1OC [Example 47] ?
*A* 66%

*Q* What about COCCOc1cc2ncnc(NC3=CC(=O)C(Oc4ccc(SC)cc4)=CC3=O)c2cc1OC [Example 35] ?
*A* 39%

* * *

Tested on: Human umbilical vein endothelial cells (HUVEC)
test details: HUVEC proliferation assay, VEGF-dependent growth ([3H]-thymidine incorporation)
Assay type: cell-based
experimental parameters: Homo sapiens, HUVEC, conc. 10000 nM
For each record, write down the corresponding inhibition at 10 µM.
# value in %; strip the unit string

*Q* Given the molecule COCCOc1cc2ncnc(NC3=CC(=O)C(N(C)C4CCCCC4)=CC3=O)c2cc1OC , what is its reported inhibition at 10 µM?
*A* 97

*Q* What about COCCOc1cc2ncnc(NC3=CC(=O)C(Oc4ccc(C(=O)c5ccccc5)cc4)=CC3=O)c2cc1OC ?
*A* 99

*Q* What about COc1cc2ncnc(NC3=CC(=O)C(Oc4ccc(Cl)cc4)=CC3=O)c2cc1OC ?
*A* 94

*Q* What about COCCOc1cc2ncnc(NC3=CC(=O)C(N4CCCCC4)=CC3=O)c2cc1OC ?
*A* 94

*Q* What about COc1cc2ncnc(NC3=CC(=O)C=C(C)C3=O)c2cc1OC ?
*A* 97

*Q* What about COCCOc1cc2ncnc(NC3=CC(=O)C(Cl)=CC3=O)c2cc1OC ?
*A* 81

*Q* What about COCCOc1cc2ncnc(NC3=CC(=O)C(Oc4cccc(C(F)(F)F)c4)=CC3=O)c2cc1OC ?
*A* 88

*Q* What about COCCOc1cc2ncnc(NC3=CC(=O)C(N(C)c4ccc(N(C)C)cc4)=CC3=O)c2cc1OC ?
*A* 91

*Q* What about CCC1=CC(=O)C(Nc2ncnc3cc(OC)c(OC)cc23)=CC1=O ?
*A* 87

*Q* What about COCCOc1cc2ncnc(NC3=CC(=O)C(Oc4ccc5c(c4)[nH]c4ccccc45)=CC3=O)c2cc1OC ?
*A* 98

* * *

For each record, write down the corresponding pIC50.
target: human KDR (VEGF-receptor-2) (Homo sapiens)
Construct: beginning at Met-806; (5′-ATG GAT CCA GAT GM CTC CCA TTG) and ending at Val-1356; made in house
test details: KDR kinase enzyme assay (DELFIA, KDR-IC-Flag, poly(Glu4-Tyr) peptide)
Type: biochemical
experimental parameters: ATP conc. 10 μM
Schema: pIC50 number; meaning minus log10 of the concentration expressed in molar units.

*Q* Given the compound COCCOc1cc2ncnc(NC3=CC(=O)C(OCc4ccccc4)=CC3=O)c2cc1OC [Example 96] , what is its reported pIC50?
*A* 7.28

*Q* What about COCCOc1cc2ncnc(NC3=CC(=O)C(Oc4ccc(C(=O)Cc5ccccc5)cc4)=CC3=O)c2cc1OC [Example 49] ?
*A* 6.83

*Q* What about COCCOc1cc2ncnc(NC3=CC(=O)C(Oc4ccc(OC)cc4)=CC3=O)c2cc1OC [Example 32] ?
*A* 8.32

*Q* What about COCCOc1cc2ncnc(NC3=CC(=O)C(Oc4cccc(OC)c4)=CC3=O)c2cc1OC [Example 28] ?
*A* 7.92

*Q* What about COCCOc1cc2ncnc(NC3=CC(=O)C(Oc4cccc(C#N)c4)=CC3=O)c2cc1OC [Example 27] ?
*A* 7.46

*Q* What about COCCOc1cc2ncnc(NC3=CC(=O)C(Oc4ccc(C(=O)/C=C/c5ccccc5)cc4)=CC3=O)c2cc1OC [Example 55] ?
*A* 8.27

* * *

Test system: Human umbilical vein endothelial cells (HUVEC)
test details: HUVEC proliferation assay, VEGF-dependent growth ([3H]-thymidine incorporation)
Assay type: cell-based
experimental parameters: Homo sapiens, HUVEC, conc. 100 nM
# if value of inhibition at 0.1 µM reaches 10%, tag Satisfied; if it stays below, tag Not satisfied

*Q* Hi team, for COCCOc1cc2ncnc(NC3=CC(=O)C(N(C)c4ccc(N(C)C)cc4)=CC3=O)c2cc1OC , is the recorded inhibition at 0.1 µM at or above 10%?
*A* Not satisfied

*Q* What about COCCOc1cc2ncnc(NC3=CC(=O)C(C)=CC3=O)c2cc1OC ?
*A* Satisfied

*Q* What about COc1cc2ncnc(NC3=CC(=O)C=C(C)C3=O)c2cc1OC ?
*A* Satisfied

*Q* What about COCCOc1cc2ncnc(NC3=CC(=O)C(Cl)=CC3=O)c2cc1OC ?
*A* Satisfied

*Q* What about COCCOc1cc2ncnc(NC3=CC(=O)C(Oc4ccc5c(c4)[nH]c4ccccc45)=CC3=O)c2cc1OC ?
*A* Not satisfied

*Q* What about COCCOc1cc2ncnc(NC3=CC(=O)C(Oc4ccc(C(=O)c5ccccc5)cc4)=CC3=O)c2cc1OC ?
*A* Satisfied

*Q* What about COCCOc1cc2ncnc(NC3=CC(=O)C(N(C)C4CCCCC4)=CC3=O)c2cc1OC ?
*A* Satisfied

*Q* What about COCCOc1cc2ncnc(NC3=CC(=O)C(Oc4ccccc4C)=CC3=O)c2cc1OC ?
*A* Satisfied

*Q* What about COCCOc1cc2ncnc(NC3=CC(=O)C(N(C)c4ccc(OC)cc4)=CC3=O)c2cc1OC ?
*A* Not satisfied

*Q* What about COc1cc2ncnc(NC3=CC(=O)C(Oc4ccc(Cl)cc4)=CC3=O)c2cc1OC ?
*A* Satisfied

*Q* What about COCCOc1cc2ncnc(NC3=CC(=O)C(N4CCCCC4)=CC3=O)c2cc1OC ?
*A* Satisfied

*Q* What about COCCOc1cc2ncnc(NC3=CC(=O)C(N(C)c4ccccc4)=CC3=O)c2cc1OC ?
*A* Not satisfied

*Q* What about COCCOc1cc2ncnc(NC3=CC(=O)C(Oc4ccc(C(=O)/C=C/c5ccccc5)cc4)=CC3=O)c2cc1OC ?
*A* Not satisfied

*Q* What about COCCOc1cc2ncnc(NC3=CC(=O)C(Oc4cccnc4)=CC3=O)c2cc1OC ?
*A* Not satisfied

*Q* What about COCCOc1cc2ncnc(NC3=CC(=O)C(OC)=CC3=O)c2cc1OC ?
*A* Not satisfied
